Study system: Aromatase (Homo sapiens, UniProt P11511)
Sequence (P11511 whole entry): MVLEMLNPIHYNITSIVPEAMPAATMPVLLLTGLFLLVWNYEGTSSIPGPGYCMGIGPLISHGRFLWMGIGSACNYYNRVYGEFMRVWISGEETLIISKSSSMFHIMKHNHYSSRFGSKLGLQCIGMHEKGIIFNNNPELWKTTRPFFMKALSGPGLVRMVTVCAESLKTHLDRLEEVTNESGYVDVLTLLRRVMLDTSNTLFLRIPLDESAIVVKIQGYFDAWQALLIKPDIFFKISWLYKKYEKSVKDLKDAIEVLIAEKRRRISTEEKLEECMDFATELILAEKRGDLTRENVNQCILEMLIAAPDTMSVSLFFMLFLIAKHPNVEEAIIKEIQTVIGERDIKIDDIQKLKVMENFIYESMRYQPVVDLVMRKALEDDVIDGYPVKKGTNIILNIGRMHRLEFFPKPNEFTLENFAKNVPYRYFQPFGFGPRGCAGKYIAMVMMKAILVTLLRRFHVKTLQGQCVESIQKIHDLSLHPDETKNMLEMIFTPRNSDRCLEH
Assay protocol: Inhibition of CYP19A1 (unknown origin) at 50 uM preincubated with NADPH followed by DBF substrate addition after 30 mins by fluorescence based assay relative to control
Measured attribute: inhibition at 50 µM (%)

These solved cases illustrate the format of a correct answer.
{"Compound": "FC(F)(F)Oc1ccc(-c2cc3ccccc3[nH]2)cc1", "inhibition at 50 µM, %": 1.86}
{"Compound": "N#Cc1ccc2[nH]c(-c3ccccc3)cc2c1", "inhibition at 50 µM, %": 82.3}
{"Compound": "CO/N=C/c1c(-c2ccccc2)[nH]c2ccccc12", "inhibition at 50 µM, %": 24.7}
{"Compound": "CC(C)(C)OC(=O)n1c(-c2ccccc2)cc2ccccc21", "inhibition at 50 µM, %": 11.9}
{"Compound": "Cn1c(-c2ccc(Cl)c(Cl)c2)cc2cc([N+](=O)[O-])ccc21", "inhibition at 50 µM, %": 34}

[a] c1ccc(Cn2c(-c3ccccc3)cc3ccccc32)cc1
[b] Nc1ccc2[nH]c(-c3ccccc3)cc2c1
[c] C(=N\OCc1ccccc1)/c1c(-c2ccccc2)[nH]c2ccccc12
## Task # rank_down: sort by inhibition at 50 µM, max first As an answer, provide the labels arranged in the order called for.
## Result b, c, a

[P] Cc1ccc2cc(-c3ccccc3)[nH]c2c1
[Q] Nc1ccc2[nH]c(-c3ccc(Cl)c(Cl)c3)cc2c1
## Task Identify the entry with the larger inhibition at 50 µM. Options: P and Q // return label of chosen record
## Result P
(P: 32.4%, Q: 21.4%)

* * *

Study system: NAD(P)H dehydrogenase [quinone] 1 (Mus musculus)
Assay protocol: Induction of QR1 activity in mouse Hepa-1c1c7 cells assessed as induction ratio at 50 uM after 48 hrs by MTT assay relative to control
Assay type: cell-based
Measured attribute: Ratio

These solved cases illustrate the format of a correct answer.
{"Smiles representation": "CCCCCc1ccc(-c2cc3ccccc3[nH]2)cc1", "Ratio": 0.78}
{"Smiles representation": "Cn1c(-c2ccc(Cl)c(Cl)c2)cc2cc([N+](=O)[O-])ccc21", "Ratio": 1.56}
{"Smiles representation": "COc1ccc2ccc(-c3cc4ccccc4[nH]3)cc2c1", "Ratio": 0.74}
{"Smiles representation": "Cc1ccccc1-c1cc2ccccc2[nH]1", "Ratio": 0.54}
{"Smiles representation": "c1ccc2[nH]c(-c3ccsc3)cc2c1", "Ratio": 0.67}

[P] Clc1ccccc1-c1cc2ccccc2[nH]1
[Q] c1ccc(Cn2c(-c3ccccc3)cc3ccccc32)cc1
## Task Identify the entry with the larger Ratio. Options: P and Q // return label of chosen record
## Result P
